target: NHERF4_1, Q86UT5-2; test: holdup assay; parameters: key: below the threshold = too weak to quantify, mostly under pKd 3.1 to 4; details: plain residues with an end cap or a label only (N-terminal biotin on a linker: ttds)
Sequence (Q86UT5 other isoform, or with tags, fused parts or gaps): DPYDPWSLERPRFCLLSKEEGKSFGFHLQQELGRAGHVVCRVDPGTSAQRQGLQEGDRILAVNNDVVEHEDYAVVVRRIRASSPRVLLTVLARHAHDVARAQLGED

| BINDER | pKd |
| --- | --- |
| PVRVCEETSL [OTULIN, Q96BN8] | 4.02 |
| PRVKPQRSKV [PPP1R13L, Q8WUF5] | below the threshold |
| DKDPHSETAL [TMIGD1, Q6UXZ0] | 3.88 |
| SGSRPSATVV [HPV73-E6, Q82005] | below the threshold |
| RLQRRRETQV [HPV18-E6, P06463] | below the threshold |
| EVVHTPETSV [SLC16A3, O15427] | 4.19 |
| FHPLGADSQV [SLC2A1, P11166] | below the threshold |
| SKPTRRETEV [HPV35-E6, P27228] | below the threshold |

Source listed as paper PMC9482650.
